The reader will find reported GI50 values listed item by item below.
test system: BXPC-3; test: Growth inhibition of humanBxPC3 cells after 48 hrs; assay type: functional; conditions: Homo sapiens, BXPC-3, 48 h
# output: bare number, implied unit µg/mL

[
  {
    "compound": "C[C@@H]1CC[C@@]2(OC1)O[C@H]1C[C@H]3[C@@H]4CC=C5C[C@@H](O[C@@H]6O[C@H](CO)[C@@H](O[C@@H]7O[C@@H](C)[C@H](O)[C@@H](O)[C@H]7O)[C@H](O)[C@H]6O[C@@H]6O[C@@H](C)[C@H](O)[C@@H](O)[C@H]6O)CC[C@]5(C)[C@H]4CC[C@]3(C)[C@H]1[C@@H]2C [DIOSCIN]",
    "units label": "µg/mL",
    "GI50": 1.1
  }
]

In the following, a different compound is considered.
# lookup: GI50 of "C[C@@H]1CC[C@@]2(OC1)O[C@H]1C[C@H]3[C@@H]4CC=C5C[C@@H](O[C@@H]6O[C@H](CO)[C@@H](O[C@@H]7OC[C@@H](O)[C@H](O)[C@H]7O)[C@H](O)[C@H]6O[C@@H]6O[C@@H](C)[C@H](O)[C@@H](O)[C@H]6O)CC[C@]5(C)[C@H]4CC[C@]3(C)[C@H]1[C@@H]2C"
1.7
